In this section we review reported log10(IC50) values for a set of compounds.
Biological target: UniProt Q12809
Sequence (Q12809 whole entry): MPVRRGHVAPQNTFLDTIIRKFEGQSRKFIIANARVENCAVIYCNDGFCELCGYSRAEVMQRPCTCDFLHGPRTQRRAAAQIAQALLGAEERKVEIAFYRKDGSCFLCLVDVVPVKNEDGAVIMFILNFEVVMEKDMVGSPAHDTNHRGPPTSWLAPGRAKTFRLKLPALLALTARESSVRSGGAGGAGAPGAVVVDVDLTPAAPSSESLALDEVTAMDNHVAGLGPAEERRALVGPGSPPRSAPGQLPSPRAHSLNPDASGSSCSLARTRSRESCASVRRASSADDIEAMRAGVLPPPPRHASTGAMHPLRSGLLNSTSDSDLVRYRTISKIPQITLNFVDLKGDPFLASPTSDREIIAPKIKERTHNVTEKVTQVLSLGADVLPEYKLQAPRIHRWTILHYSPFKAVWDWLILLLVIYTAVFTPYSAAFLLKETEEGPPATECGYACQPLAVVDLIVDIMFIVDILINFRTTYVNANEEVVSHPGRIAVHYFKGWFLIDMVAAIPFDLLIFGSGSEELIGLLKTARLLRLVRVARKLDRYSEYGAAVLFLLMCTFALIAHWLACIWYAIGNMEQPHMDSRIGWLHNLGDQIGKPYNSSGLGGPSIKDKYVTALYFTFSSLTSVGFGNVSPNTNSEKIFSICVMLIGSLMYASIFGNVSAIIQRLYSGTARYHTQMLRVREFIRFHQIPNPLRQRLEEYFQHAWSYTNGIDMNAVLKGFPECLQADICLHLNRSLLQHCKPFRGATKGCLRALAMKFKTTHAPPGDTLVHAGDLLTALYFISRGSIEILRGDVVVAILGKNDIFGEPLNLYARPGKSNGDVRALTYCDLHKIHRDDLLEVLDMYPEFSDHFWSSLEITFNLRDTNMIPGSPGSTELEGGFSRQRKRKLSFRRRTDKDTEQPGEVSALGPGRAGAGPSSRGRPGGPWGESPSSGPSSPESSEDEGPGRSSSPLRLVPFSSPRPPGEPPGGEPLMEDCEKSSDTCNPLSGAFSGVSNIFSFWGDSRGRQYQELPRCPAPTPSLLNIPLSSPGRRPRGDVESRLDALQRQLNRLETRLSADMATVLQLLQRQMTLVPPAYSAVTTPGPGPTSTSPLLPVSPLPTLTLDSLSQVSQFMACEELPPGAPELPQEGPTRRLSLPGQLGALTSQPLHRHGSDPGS
Assay: Inhibition of hERG expressed in CHO cells stably at -80 mV holding potential by automated patch clamp method
Readout kind: log10(IC50) (log10 of the value in µM)

Structure smiles string | log10(IC50)
COc1ccc2nc(N[C@H]3CCN(C(=O)Cc4cc(F)cc(F)c4)C3)ccc2c1 | -0.44
COc1cc([C@@H](C)C(=O)N2CC[C@H](Nc3ccc(-c4n[nH]c(C(F)F)n4)c(C)n3)C2)c(F)cn1 | 1.28
COc1cc([C@@H](C)C(=O)N2CC[C@H](Nc3ccc(-c4nc(C(F)F)n(C)n4)c(C)n3)C2)c(F)cn1 | 1.40
[2H]C([2H])([2H])n1nc(-c2ccc(N[C@H]3CCN(C(=O)[C@H](C)c4cc(OC)ncc4F)C3)nc2C)nc1C(F)F | 1.45
Cc1nc(N[C@H]2CCN(C(=O)Cc3ccc(F)cc3)C2)ccc1-c1nc(C(F)(F)F)n(C)n1 | 1.89
COc1cc([C@@H](C)C(=O)N2CC[C@@]3(COc4cc(-c5ncccn5)c(C)nc4N3)C2)c(F)cn1 | 1.43

----------
Target: Melanocortin receptor 4 (Homo sapiens)
Sequence (P32245 whole entry): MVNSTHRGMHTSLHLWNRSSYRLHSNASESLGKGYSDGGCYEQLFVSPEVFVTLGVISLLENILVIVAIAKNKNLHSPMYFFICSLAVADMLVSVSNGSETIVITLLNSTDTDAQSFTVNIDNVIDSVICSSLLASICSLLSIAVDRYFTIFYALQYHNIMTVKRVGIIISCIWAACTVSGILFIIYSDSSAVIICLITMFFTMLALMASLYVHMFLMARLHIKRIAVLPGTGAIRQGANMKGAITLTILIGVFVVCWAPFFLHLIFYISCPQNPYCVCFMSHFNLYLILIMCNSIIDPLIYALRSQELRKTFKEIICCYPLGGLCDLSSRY
Test: Antagonist activity at human MC4R in CHO cells measured for 24 hrs in presence of alpha-MSH
In this section we review reported Ki values for a set of molecules.
Readout kind: Ki (µM)

Structure smiles string | Readout kind | Measurement units | Readout value
Cc1nc(N[C@H]2CCN(C(=O)Cc3ccc(F)cc3)C2)ccc1-c1nc(C(F)(F)F)n(C)n1 | Ki | µM | 0.0055
COc1ccc2nc(N[C@H]3CCN(C(=O)Cc4cc(F)cc(F)c4)C3)c(C)cc2c1 | Ki | µM | 0.91
COc1cc([C@@H](C)C(=O)N2CC[C@H](Nc3ccc(-c4n[nH]c(C(F)F)n4)c(C)n3)C2)c(F)cn1 | Ki | µM | 0.062
COc1cc(CC(=O)N2CC[C@H](Nc3ccc(-c4nc(C(F)F)n(C)n4)c(C)n3)C2)ccn1 | Ki | µM | 0.027

----------
Biological target: Melanocortin receptor 4 (Homo sapiens)
Assay: Antagonist activity at human MC4R expressed in CHO cells assessed as decrease in alpha-MSH induced cAMP level incubated for 1 hr by microplate reader analysis
Format: functional, cell-based
pIC50: −log10 of the molar value.

Structure smiles string | pIC50
COc1ccc2nc(N[C@H]3CCN(C(=O)Cc4cc(F)cc(F)c4)C3)ccc2c1 | 6.44

----------
Assay: Tmax in Beagle dog at 1 mg/kg, po measured at 0.25 to 24 hrs by LC-MS/MS analysis
Format: ADME, organism-based, Canis lupus familiaris
Details: in vivo, time 0.25-24 hrs

Structure smiles string | Measurement units | Tmax
COc1cc([C@@H](C)C(=O)N2CC[C@@]3(COc4cc(-c5ncccn5)c(C)nc4N3)C2)c(F)cn1 | min | 22.8

----------
Experiment: Tmax in Wistar Han rat at 5 mg/kg, po measured at 0.083 to 24 hrs by LC-MS/MS analysis
Type: ADME, organism-based
Conditions: in vivo, time 0.083-24 hrs

Structure smiles string | Tmax / min
COc1cc([C@@H](C)C(=O)N2CC[C@@]3(COc4cc(-c5ncccn5)c(C)nc4N3)C2)c(F)cn1 | 30

----------
Assay: Cmax in Wistar Han rat at 5 mg/kg, po measured at 0.083 to 24 hrs by LC-MS/MS analysis
Type: ADME, organism-based
Design: dose 5 mg/kg, time upper 24 hrs, time lower 0.083 hrs, route po
Conditions: in vivo
Readout kind: Cmax (ng/mL)

Structure smiles string | Readout value
COc1cc([C@@H](C)C(=O)N2CC[C@@]3(COc4cc(-c5ncccn5)c(C)nc4N3)C2)c(F)cn1 | 600

----------
Test: Passive apparent permeability in MDCKII-LE cells
Format: ADME, cell-based, Canis lupus familiaris
Settings: dog, MDCK; read-out: permeability (converted)

Structure smiles string | Measurement units | Papp
COc1cc([C@@H](C)C(=O)N2CC[C@@]3(COc4cc(-c5ncccn5)c(C)nc4N3)C2)c(F)cn1 | nm/s | 4.67

----------
Experiment: Cmax in Beagle dog at 1 mg/kg, po measured at 0.25 to 24 hrs by LC-MS/MS analysis
Assay type: ADME, organism-based, Canis lupus familiaris
Set-up: dose 1 mg/kg, time 0.25-24 hrs, route po
Details: in vivo

Structure smiles string | Cmax, ng/mL
COc1cc([C@@H](C)C(=O)N2CC[C@@]3(COc4cc(-c5ncccn5)c(C)nc4N3)C2)c(F)cn1 | 1470

----------
Experiment: Metabolic stability in human hepatocyte assessed as intrinsic clearance measured per million cells HPLC/UV/MS analysis
Assay type: ADME, cell-based
Conditions: hepatocytes, read-out: CLH
Readout kind: hepatocyte CLint (µL/min/1e6 cells)

Structure smiles string | Readout kind | Readout value
COc1cc([C@@H](C)C(=O)N2CC[C@H](Nc3ccc(-c4nc(C(F)(F)F)n(C)n4)c(C)n3)C2)c(F)cn1 | hepatocyte CLint | 15
COc1cc(CC(=O)N2CC[C@H](Nc3ccc(-c4nc(C(F)(F)F)n(C)n4)c(C)n3)C2)cc(OC)c1 | hepatocyte CLint | 34
COc1cc([C@@H](C)C(=O)N2CC[C@H](Nc3ccc(-c4nc(C(F)F)n(C)n4)c(C)n3)C2)ccn1 | hepatocyte CLint | 10
COc1cc([C@@H](C)C(=O)N2CC[C@@]3(CCc4cc(-c5nc(C(F)F)n(C)n5)c(C)nc4N3)C2)c(F)cn1 | hepatocyte CLint | 11
COc1cc([C@@H](C)C(=O)N2CC[C@H](Nc3ccc(-c4ncccn4)c(C)n3)C2)c(F)cn1 | hepatocyte CLint | 7.9
Cc1nc2c(cc1-c1cnn(C)c1)OC[C@@]1(CCN(C(=O)Cc3ccc(F)cc3)C1)N2 | hepatocyte CLint | 4.9
COc1cc([C@@H](C)C(=O)N2CC[C@H](Nc3ccc(-c4nc(C(F)F)n(C)n4)c(C)n3)C2)c(F)cn1 | hepatocyte CLint | 15
COc1cc([C@@H](C)C(=O)N2CC[C@@]3(COc4cc(-c5ncccn5)c(C)nc4N3)C2)c(F)cn1 | hepatocyte CLint | 12

----------
Target: High affinity cGMP-specific 3',5'-cyclic phosphodiesterase 9A (Homo sapiens)
Sequence (O76083 whole entry): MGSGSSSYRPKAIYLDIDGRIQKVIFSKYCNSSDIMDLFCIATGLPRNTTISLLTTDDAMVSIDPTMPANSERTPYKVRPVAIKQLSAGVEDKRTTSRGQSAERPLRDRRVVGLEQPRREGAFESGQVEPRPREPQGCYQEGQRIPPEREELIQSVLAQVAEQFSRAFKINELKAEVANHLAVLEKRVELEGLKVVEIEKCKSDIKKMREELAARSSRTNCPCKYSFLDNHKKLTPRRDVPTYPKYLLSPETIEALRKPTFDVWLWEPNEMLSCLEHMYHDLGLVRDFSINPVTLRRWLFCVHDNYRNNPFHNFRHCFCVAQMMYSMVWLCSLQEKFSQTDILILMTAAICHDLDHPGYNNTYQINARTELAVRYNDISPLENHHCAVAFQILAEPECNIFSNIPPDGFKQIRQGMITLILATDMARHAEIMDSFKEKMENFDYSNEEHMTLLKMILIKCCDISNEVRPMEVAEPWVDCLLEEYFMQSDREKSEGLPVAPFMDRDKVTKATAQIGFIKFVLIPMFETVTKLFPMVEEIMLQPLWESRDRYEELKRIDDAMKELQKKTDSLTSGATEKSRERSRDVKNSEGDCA
Assay: Inhibition of human PDE9A1

Structure smiles string | IC50
COc1cc([C@@H](C)C(=O)N2CC[C@@]3(COc4cc(-c5ncccn5)c(C)nc4N3)C2)c(F)cn1 | > 50 µM

----------
Assay: Half life in Wistar Han rat at 1 mg/kg, iv measured at 0.033 to 24 hrs by LC-MS/MS analysis
Assay type: ADME, organism-based
Conditions: in vivo, time 0.033-24 hrs
Readout kind: half-life (h)

Structure smiles string | Readout value
COc1cc([C@@H](C)C(=O)N2CC[C@@]3(COc4cc(-c5ncccn5)c(C)nc4N3)C2)c(F)cn1 | 1

----------
Assay: Efflux ratio of apparent permeability from basolateral to apical side over apical to basolateral side in MDCK-MDR1 cells
Type: ADME, cell-based, Canis lupus familiaris
Conditions: dog

Compound | Ratio
Cc1nc2c(cc1-c1cnn(C)c1)CC1(CCN(C(=O)Cc3ccc(F)cc3)C1)N2 (racemic) | 34
COc1cc([C@@H](C)C(=O)N2CC[C@@]3(CCc4cc(-c5nc(C(F)(F)F)n(C)n5)c(C)nc4N3)C2)c(F)cn1 | 4.8
COc1cc([C@@H](C)C(=O)N2CC[C@H](Nc3ccc(-c4ncccn4)c(C)n3)C2)c(F)cn1 | 4.9
Cc1nc(N[C@H]2CCN(C(=O)Cc3ccc(F)cc3)C2)ccc1-c1nc(C(F)(F)F)n(C)n1 | 6.1
Cc1nc(N[C@H]2CCN(C(=O)Cc3ccc(F)cc3)C2)ccc1-c1ncn(C)n1 | 19
COc1cc([C@@H](C)C(=O)N2CC[C@H](Nc3ccc(-c4nc(C(F)F)n(C)n4)c(C)n3)C2)ccn1 | 16
COc1cc([C@@H](C)C(=O)N2CC[C@@]3(CCc4cc(-c5nc(C(F)F)n(C)n5)c(C)nc4N3)C2)c(F)cn1 | 8.7
COc1cc([C@@H](C)C(=O)N2CC[C@H](Nc3ccc(-c4nc(C(F)(F)F)n(C)n4)c(C)n3)C2)c(F)cn1 | 6.1
COc1ccc2nc(N[C@H]3CCN(C(=O)Cc4cc(F)cc(F)c4)C3)ccc2c1 | 8.6
Cc1nc2c(cc1-c1cnn(C)c1)CC[C@@]1(CCN(C(=O)Cc3ccc(F)cc3)C1)N2 | 18

----------
In this section we review reported K values for a set of compounds.
Biological target: Cytochrome P450 3A (Homo sapiens, UniProt P08684+P20815+Q9HB55+P24462)
Assay: Time dependent inhibition of CYP3A (unknown origin) at 10 uM relative to control
Assay type: ADME, protein assay

Structure smiles string | K (min⁻¹)
Cc1nc(N[C@H]2CCN(C(=O)Cc3ccc(F)cc3)C2)ccc1-c1ncn(C)n1 | 0.007
COc1cc([C@@H](C)C(=O)N2CC[C@H](Nc3ccc(-c4nc(C(F)F)n(C)n4)c(C)n3)C2)c(F)cn1 | 0.015
Cc1nc(N[C@H]2CCN(C(=O)Cc3ccc(F)cc3)C2)ccc1-c1nc(C(F)(F)F)n(C)n1 | 0.006
COc1ccc2nc(N[C@H]3CCN(C(=O)Cc4cc(F)cc(F)c4)C3)ccc2c1 | 0.61
COc1cc([C@@H](C)C(=O)N2CC[C@@]3(COc4cc(-c5ncccn5)c(C)nc4N3)C2)c(F)cn1 | 0.09
